Attribution: ChEMBL document CHEMBL3751777

# assay-protocol: Toxicity in dog administered as bid for 28 days
# Assay type: organism-based, Canis lupus familiaris
# experimental-setup: in vivo
experimental-readout: NOAEL at 672 h (mg/kg/day)
The reply should contain only the number, in mg/kg/day.

Record OC(CC1c2ccccc2-c2cncn21)C1CCCCC1 (mixture of isomers) . Reported NOAEL at 672 h: 80
